Tested on: Trypanosoma brucei brucei
ASSAY_PROCEDURE: Antitrypanosomal activity against bloodstream forms of Trypanosoma brucei brucei 427 stably transfected with pHD449 plasmid assessed as parasite viability at 5 uM after 24 hrs by propidium iodide staining based flow cytometry
Assay type: functional
READOUT: Activity
Answer format: value, then unit.

Below: 3 molecules and their reported Activity.
SMILES_NOTATION: O=C(CN1C(=O)Cc2c([nH]c3ccc(Br)cc23)-c2ccc(Cl)cc21)NCc1cccnc1
EXPERIMENTAL_TARGET: Trypanosoma brucei brucei
OBSERVED_RESULT: 59.4%
//
SMILES_NOTATION: O=C(CN1C(=O)Cc2c([nH]c3ccc(Br)cc23)-c2ccc(Cl)cc21)NCc1ccccc1Cl
EXPERIMENTAL_TARGET: Trypanosoma brucei brucei
OBSERVED_RESULT: 53.2%
//
SMILES_NOTATION: O=C(CN1C(=O)Cc2c([nH]c3ccc(Br)cc23)-c2ccc(Cl)cc21)NCc1ccccn1
EXPERIMENTAL_TARGET: Trypanosoma brucei brucei
OBSERVED_RESULT: 33.8%

Then this molecule:
Query: For the molecule O=C(CN1C(=O)Cc2c([nH]c3ccc(Br)cc23)-c2ccc(Cl)cc21)NCc1ccncc1 , what Activity is on record?
Response: 49.1%
